experiment: CEETOX_H295R_DOC: CeeTox H295R High-throughput Steroidogenesis Assay for DOC (AID 2283439); conditions: actives raise or lower the signal
The source made the active and inactive calls. Rule for the calls: active = hit-call score of the fitted dose curve at least 0.9, where 1 is the maximum; inactive = score below 0.9.
Your reply should match one of these outcome classes. 1 (active), 0 (inactive)

# count of solved cases: 3
INSERT INTO measurements (smiles_notation, category) VALUES
  ('CC#Cc1cc(C)nc(Nc2ccccc2)n1', 0),
  ('Nc1ccc(-c2ccc(N)cc2)cc1', 1),
  ('NS(=O)(=O)C(F)(F)C(F)(F)C(F)(F)C(F)(F)C(F)(F)C(F)(F)C(F)(F)C(F)(F)F', 0);

Let's switch to this molecule now.
Query: Dear colleague, could you share the recorded outcome for Cc1cc(O)ccc1Cl when you have a moment?
Reply: 0
